- tgt: DosT (Mycobacterium tuberculosis, UniProt P9WGK1)
- Sequence (P9WGK1 whole entry): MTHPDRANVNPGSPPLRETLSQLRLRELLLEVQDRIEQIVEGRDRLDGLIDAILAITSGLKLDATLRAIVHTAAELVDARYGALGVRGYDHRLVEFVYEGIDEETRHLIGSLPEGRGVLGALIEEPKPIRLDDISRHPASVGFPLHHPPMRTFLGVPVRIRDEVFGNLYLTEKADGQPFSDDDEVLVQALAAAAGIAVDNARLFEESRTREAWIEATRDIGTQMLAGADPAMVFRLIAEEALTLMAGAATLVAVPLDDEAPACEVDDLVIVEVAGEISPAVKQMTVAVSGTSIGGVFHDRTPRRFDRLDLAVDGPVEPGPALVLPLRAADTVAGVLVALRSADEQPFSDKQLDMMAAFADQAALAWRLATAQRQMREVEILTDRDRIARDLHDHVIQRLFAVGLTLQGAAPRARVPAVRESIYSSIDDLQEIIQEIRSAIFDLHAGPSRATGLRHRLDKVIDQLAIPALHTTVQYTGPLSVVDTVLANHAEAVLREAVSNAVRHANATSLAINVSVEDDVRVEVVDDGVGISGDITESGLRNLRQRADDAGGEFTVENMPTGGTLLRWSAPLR
pIC50: −log10 of the molar value.
observation-type: pIC50

Given the compound O=C(Nc1cccc(O)c1)c1cccc(NC(=O)c2cccs2)c1 [HC103A] , what is its reported pIC50? ~5.30

* * *

- tgt: DosS (Mycobacterium tuberculosis)
- Sequence (P9WGK3 whole entry): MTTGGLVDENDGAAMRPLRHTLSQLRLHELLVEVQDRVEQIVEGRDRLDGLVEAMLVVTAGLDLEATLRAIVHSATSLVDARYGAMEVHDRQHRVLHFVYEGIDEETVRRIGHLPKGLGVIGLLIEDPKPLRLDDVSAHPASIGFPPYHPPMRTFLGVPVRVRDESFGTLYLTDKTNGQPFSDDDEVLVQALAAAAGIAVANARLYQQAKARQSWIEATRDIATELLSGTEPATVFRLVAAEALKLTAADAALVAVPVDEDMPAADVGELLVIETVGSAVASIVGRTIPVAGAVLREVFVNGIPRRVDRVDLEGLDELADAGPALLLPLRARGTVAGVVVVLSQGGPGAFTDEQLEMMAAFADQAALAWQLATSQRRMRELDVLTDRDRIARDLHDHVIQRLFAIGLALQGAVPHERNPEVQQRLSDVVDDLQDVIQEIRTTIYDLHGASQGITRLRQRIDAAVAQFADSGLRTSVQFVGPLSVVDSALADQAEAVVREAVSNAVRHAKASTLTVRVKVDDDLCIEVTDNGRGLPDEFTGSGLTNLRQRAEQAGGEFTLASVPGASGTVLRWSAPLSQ
- assay-name: DosS autophosphorylation assay
- Assay type: biochemical
observation-type: IC50

Given the compound O=C(Nc1cccc(O)c1)c1cccc(NC(=O)c2cccs2)c1 [HC103A] , what is its reported IC50? 500 nM

* * *

- tgt: DosS (Mycobacterium tuberculosis)
- assay-name: DosS autophosphorylation assay
- Assay type: biochemical
- condition-summary: 1 hour incubation; read-out: IC50 of inhibition of DosS autophosphorylation
observation-type: IC50

Given the compound C[C@@H]1CC(C)(C)C[C@]2(C1)NC(=O)NC2=O (racemic) [HC102A] , what is its reported IC50? 1900 nM

The measured values listed here are drawn from patent US11717508B2.
